# Test description: First-in-human study, pharmacokinetics in healthy volunteers (plasma concentration; SAD, MAD, food effect)
# Type: in vivo
# Assay setup: plasma, oral; human, FIH study; maximum value; read-out: terminal half-life
Reported metric: half-life

Noted for "Cc1cc(N2CCc3c(c(C)nn3CC34CCC(NC(=O)[C@@H]5COCCN5)(CC3)CC4)C2)c2cnn(C)c2n1" : its half-life reads ≤ 864 min
